Reference for the values: PubChem BioAssay (NCI)

- System: UO-31 renal
- ASSAY_OVERVIEW: NCI tumour cell line growth inhibition, 48 h
PARAMETER: TGI

# count of solved cases: 5
{"COMPOUND": "O=C(O)[C@@H]1NC[C@H]2C(Br)=NO[C@H]21", "TGI": "> 100 µM"}
{"COMPOUND": "CCC1C(=O)C(O)[C@H]2[C@@H]3C(O)CC4=CC(=O)CC[C@]4(C)[C@H]3CC[C@]12C (stereo partly specified)", "TGI": "> 50 µM"}
{"COMPOUND": "CC(O)C1(CNc2cc(Cl)nc(N)n2)CC(CCc2ccccc2)C1 (stereo unspecified)", "TGI": "24.6 µM"}
{"COMPOUND": "CC1=C([Te]c2ccc(O)cc2)C(=O)c2ccccc2C1=O", "TGI": "4.98 µM"}
{"COMPOUND": "Cc1nn(-c2nc3ccccc3s2)c2c1C(=O)c1ccccc1-2", "TGI": "> 100 µM"}

[Q] So what does the record say about TGI for COc1c(OC/C=C(\C)CCC=C(C)C)ccc2ccc(=O)oc12 ?
[A] > 100 µM
